// reported MIC80 for each item listed
- System: Cryptococcus neoformans
- ASSAY COMMENT: Antifungal activity against Cryptococcus neoformans H99 after 48 hrs by growth curve assay
- Assay type: functional
- RUN CONDITIONS: var grubii H99 

COMPOUND: Brc1ccc(NCCCn2c3c(c4ccccc42)CCNC3)cc1.O=C(O)C(F)(F)F
MIC80 / µg/mL: 8
//
COMPOUND: CC1CCCN(CCCn2c3c(c4ccccc42)CCNC3)C1 (stereo not given)
MIC80 / µg/mL: 32
//
COMPOUND: Clc1ccc(OCCCn2c3c(c4cccc(Br)c42)CCNC3)cc1.O=C(O)C(F)(F)F
MIC80 / µg/mL: 4
//
COMPOUND: COc1ccc(NCCCn2c3c(c4ccccc42)CCNC3)cc1.O=C(O)C(F)(F)F
MIC80 / µg/mL: 32
//
COMPOUND: c1ccc(N2CCN(CCCn3c4c(c5ccccc53)CCNC4)CC2)cc1
MIC80 / µg/mL: 32

====

- Test system: Cryptococcus neoformans
- ASSAY COMMENT: Antifungal activity against Cryptococcus neoformans H99 after 48 hrs by growth curve assay
- Format: functional
- RUN CONDITIONS: var grubii H99 
// classify: if (MIC80 < 4 µg/mL) Satisfied else Not satisfied

SMILES INPUT: Fc1ccc2c3c(n(CCCOc4ccc(Cl)cc4)c2c1)CNCC3.O=C(O)C(F)(F)F
GROUP LABEL: Satisfied
--
SMILES INPUT: Fc1ccc(OCCCn2c3c(c4ccccc42)CCNC3)cc1.O=C(O)C(F)(F)F
GROUP LABEL: Not satisfied
--
SMILES INPUT: Clc1ccc(NCCCn2c3c(c4ccccc42)CCNC3)cc1.O=C(O)C(F)(F)F
GROUP LABEL: Not satisfied
--
SMILES INPUT: Clc1ccc(OCCCn2c3c(c4cccc(Cl)c42)CCNC3)cc1.O=C(O)C(F)(F)F
GROUP LABEL: Satisfied
--
SMILES INPUT: Fc1cccc(OCCCn2c3c(c4ccccc42)CCNC3)c1.O=C(O)C(F)(F)F
GROUP LABEL: Not satisfied
--
SMILES INPUT: Cc1ccc(OCCCn2c3c(c4ccccc42)CCNC3)cc1.O=C(O)C(F)(F)F
GROUP LABEL: Not satisfied
--
SMILES INPUT: COc1ccccc1NCCCn1c2c(c3ccccc31)CCNC2.O=C(O)C(F)(F)F
GROUP LABEL: Not satisfied
--
SMILES INPUT: COc1ccccc1N1CCN(CCCn2c3c(c4ccccc42)CCNC3)CC1
GROUP LABEL: Not satisfied
--
SMILES INPUT: c1ccc(C2CCN(CCCn3c4c(c5ccccc53)CCNC4)CC2)cc1
GROUP LABEL: Not satisfied
--
SMILES INPUT: CCOc1ccccc1NCCCn1c2c(c3ccccc31)CCNC2.O=C(O)C(F)(F)F
GROUP LABEL: Not satisfied
--
SMILES INPUT: Cc1cccc2c3c(n(CCCOc4ccc(Cl)cc4)c12)CNCC3.O=C(O)C(F)(F)F
GROUP LABEL: Satisfied
--
SMILES INPUT: CCOc1ccc(NCCCn2c3c(c4ccccc42)CCNC3)cc1.O=C(O)C(F)(F)F
GROUP LABEL: Not satisfied
--
SMILES INPUT: Brc1cccc(NCCCn2c3c(c4ccccc42)CCNC3)c1.O=C(O)C(F)(F)F
GROUP LABEL: Not satisfied
--
SMILES INPUT: Brc1ccccc1NCCCn1c2c(c3ccccc31)CCNC2.O=C(O)C(F)(F)F
GROUP LABEL: Not satisfied
--
SMILES INPUT: Cc1ccc2c3c(n(CCCOc4ccc(Cl)cc4)c2c1)CNCC3.O=C(O)C(F)(F)F
GROUP LABEL: Satisfied
--
SMILES INPUT: c1ccc2c(c1)c1c(n2CCCNC2CCCC2)CNCC1
GROUP LABEL: Not satisfied
--
SMILES INPUT: Clc1ccc(OCCCn2c3c(c4ccc(Cl)cc42)CCNC3)cc1.O=C(O)C(F)(F)F
GROUP LABEL: Satisfied
--
SMILES INPUT: Cc1ccc(NCCCn2c3c(c4ccccc42)CCNC3)cc1.O=C(O)C(F)(F)F
GROUP LABEL: Not satisfied
--
SMILES INPUT: Cc1ccc2c(c1)c1c(n2CCCOc2ccc(Cl)cc2)CNCC1.O=C(O)C(F)(F)F
GROUP LABEL: Satisfied
--
SMILES INPUT: O=C(O)C(F)(F)F.O=[N+]([O-])c1ccc(OCCCn2c3c(c4ccccc42)CCNC3)cc1
GROUP LABEL: Not satisfied
--
SMILES INPUT: Fc1ccccc1OCCCn1c2c(c3ccccc31)CCNC2.O=C(O)C(F)(F)F
GROUP LABEL: Not satisfied
--
SMILES INPUT: Clc1ccccc1NCCCn1c2c(c3ccccc31)CCNC2.O=C(O)C(F)(F)F
GROUP LABEL: Not satisfied
--
SMILES INPUT: O=C1c2ccccc2C(=O)N1CCCn1c2c(c3ccccc31)CCNC2
GROUP LABEL: Not satisfied
--
SMILES INPUT: Brc1ccccc1OCCCn1c2c(c3ccccc31)CCNC2.O=C(O)C(F)(F)F
GROUP LABEL: Not satisfied
--
SMILES INPUT: c1ccc2c(c1)c1c(n2CCCN2CCCCC2)CNCC1
GROUP LABEL: Not satisfied
--
SMILES INPUT: CN(C)CCn1c2c(c3ccccc31)CCNC2
GROUP LABEL: Not satisfied
--
SMILES INPUT: c1ccc2c(c1)c1c(n2CCCN2CCCC2)CNCC1
GROUP LABEL: Not satisfied
--
SMILES INPUT: COc1cccc(NCCCn2c3c(c4ccccc42)CCNC3)c1.O=C(O)C(F)(F)F
GROUP LABEL: Not satisfied
--
SMILES INPUT: Fc1ccccc1NCCCn1c2c(c3ccccc31)CCNC2.O=C(O)C(F)(F)F
GROUP LABEL: Not satisfied
--
SMILES INPUT: Clc1ccc(OCCCn2c3c(c4ccc(Br)cc42)CCNC3)cc1.O=C(O)C(F)(F)F
GROUP LABEL: Satisfied
--
SMILES INPUT: COc1ccc2c3c(n(CCCOc4ccc(Cl)cc4)c2c1)CNCC3.O=C(O)C(F)(F)F
GROUP LABEL: Satisfied
--
SMILES INPUT: COc1cccc(OCCCn2c3c(c4ccccc42)CCNC3)c1.O=C(O)C(F)(F)F
GROUP LABEL: Not satisfied
--
SMILES INPUT: CCOc1cccc(NCCCn2c3c(c4ccccc42)CCNC3)c1.O=C(O)C(F)(F)F
GROUP LABEL: Not satisfied

From: ChEMBL document CHEMBL4400538
